Data provenance is ChEMBL document CHEMBL2218924.

target: Rho-associated protein kinase 1 (Homo sapiens) (UniProt Q13464); settings: at 10 µM
Sequence (Q13464 2-1354 limits assumed): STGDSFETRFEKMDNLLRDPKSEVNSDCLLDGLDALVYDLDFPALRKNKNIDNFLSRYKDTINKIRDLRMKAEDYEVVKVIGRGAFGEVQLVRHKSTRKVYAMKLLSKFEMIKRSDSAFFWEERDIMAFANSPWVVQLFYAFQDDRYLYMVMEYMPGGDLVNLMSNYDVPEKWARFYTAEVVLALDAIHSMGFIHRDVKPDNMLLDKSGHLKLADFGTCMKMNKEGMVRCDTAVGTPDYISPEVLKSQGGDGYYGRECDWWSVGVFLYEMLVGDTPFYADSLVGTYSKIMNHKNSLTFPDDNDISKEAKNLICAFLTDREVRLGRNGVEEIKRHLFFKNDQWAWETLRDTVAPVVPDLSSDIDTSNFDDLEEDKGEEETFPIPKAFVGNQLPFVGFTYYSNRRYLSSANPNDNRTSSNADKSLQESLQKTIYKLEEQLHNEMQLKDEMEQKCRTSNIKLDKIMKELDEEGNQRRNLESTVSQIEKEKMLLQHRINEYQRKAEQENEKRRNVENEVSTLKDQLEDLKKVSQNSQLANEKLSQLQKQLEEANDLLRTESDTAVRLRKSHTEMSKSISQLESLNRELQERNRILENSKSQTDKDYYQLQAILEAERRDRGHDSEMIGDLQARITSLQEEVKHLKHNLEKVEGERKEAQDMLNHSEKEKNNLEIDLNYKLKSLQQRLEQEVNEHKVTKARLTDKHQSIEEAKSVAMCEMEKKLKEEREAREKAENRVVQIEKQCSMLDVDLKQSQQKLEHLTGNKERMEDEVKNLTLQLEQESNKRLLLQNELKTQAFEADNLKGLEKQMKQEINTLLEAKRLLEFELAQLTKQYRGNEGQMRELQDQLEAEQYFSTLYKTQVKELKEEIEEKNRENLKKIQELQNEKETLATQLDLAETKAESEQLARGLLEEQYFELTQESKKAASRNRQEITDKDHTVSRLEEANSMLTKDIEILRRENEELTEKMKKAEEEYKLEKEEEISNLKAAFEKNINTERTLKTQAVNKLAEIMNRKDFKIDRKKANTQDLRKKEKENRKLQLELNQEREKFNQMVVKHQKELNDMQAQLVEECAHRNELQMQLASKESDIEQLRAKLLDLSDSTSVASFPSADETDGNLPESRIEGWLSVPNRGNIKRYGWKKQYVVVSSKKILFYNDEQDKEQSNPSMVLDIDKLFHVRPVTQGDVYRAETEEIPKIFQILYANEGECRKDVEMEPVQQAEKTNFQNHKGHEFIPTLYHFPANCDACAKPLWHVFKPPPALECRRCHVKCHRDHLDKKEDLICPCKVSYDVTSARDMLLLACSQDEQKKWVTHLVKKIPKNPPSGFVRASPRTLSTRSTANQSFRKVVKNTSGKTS
property-label: residual activity (%)
// return numeric value only (unit: %, not printed)

These solved cases illustrate the format of a correct answer.
Identify the measured residual activity of `O=C1NC(=O)C(c2cn(CCCn3ccnc3)c3ccccc23)=C1Nc1ccccc1` for Rho-associated protein kinase 1 (Homo sapiens) (UniProt Q13464). 121

Identify the measured residual activity of `O=C(O)/C=C/c1cc(Br)c(Br)c(Br)c1Br` for Rho-associated protein kinase 1 (Homo sapiens) (UniProt Q13464). 98

Identify the measured residual activity of `c1ccc(-c2cnc(Nc3ccc(OCCN4CCCC4)cc3)s2)cc1` for Rho-associated protein kinase 1 (Homo sapiens) (UniProt Q13464). 110

Identify the measured residual activity of `COc1ccc(COc2ccc(Cc3cnc(N)nc3N)cc2OC)cc1` for Rho-associated protein kinase 1 (Homo sapiens) (UniProt Q13464). 120

Identify the measured residual activity of `NC(=O)c1ccc(-c2nc(-c3ccc4c(c3)OCCO4)c(-c3ccccn3)[nH]2)cc1` for Rho-associated protein kinase 1 (Homo sapiens) (UniProt Q13464). 90

As a next step, examine the compound that follows.
Identify the measured residual activity of `Nc1ncnc2[nH]nc(Nc3ccc(F)cc3)c12` for Rho-associated protein kinase 1 (Homo sapiens) (UniProt Q13464). 101
